We begin with a simple list: items and their reported apparent KD of K4 kissing-loop reporter.
tested on: K4 kissing-loop RNA reporter; assay: apparent KD of K4 kissing-loop reporter; higher = weaker reporter binding; settings: Eterna round: R107; input ligand: tryptophan 2.4 mM;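 further: bound reporter read as fluorescence of individual clusters on recovered sequencing chips by microscopy, with normalized cluster intensities fitted with a binding model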

seq	test.system	apparent KD of K4 kissing-loop reporter, nM
AUUUUUUUGUCAGGAUAUUAGUAUGCGUUUGGUUUGUUAGUGAUGUUGAUAUUUUGUUUAUGUAUUUAAGAAGGGAUUUAGCGGU [yyitemullin]	K4 kissing-loop RNA reporter	359
UUAGGAGUGGAAGGAUAUCCUGGUGUGGGUGAUGUUAGUGAUGUUGAAAGUGCAGUGAUGUUGCGCGGAGAAGGUCCGGUGUUGA [BDazzled - #7 - Exc. FMN B]	K4 kissing-loop RNA reporter	157
AGACUACUGAUAGGAUAUAACAUACUAGCUCGUAUACCAAAGGUAUACGAGCACCUUCUAGUGAUGUUAGAAGGGUCGGUAGUCA [Omei KL FMN B Exc B v3]	K4 kissing-loop RNA reporter	117

---

Parameter: apparent KD of MS2 coat protein. Scope: all listed entries.
system: MS2 coat protein; test: apparent KD of MS2 coat protein; designed switch direction (-1 OFF switch, 1 ON switch): -1; higher = weaker reporter binding; settings: input ligand: none

seq	apparent KD of MS2 coat protein (nM)
CAGUACUGAGGAUAUACAUGAGGAUCACCCAUGUGUUCCAGCUAGGAAACUAGCAAGUGUAGAAGGCAGUACUG [Salish 065 m7] (Eterna round: R97, puzzle: Exclusion 3)	410
UCUUUCUUUGUGAGGAUAUGCCCAAAUAAAAGCGGGCAGAAGGCACAUGAGGAUCACCCAUGUCCUGCGGUUUU [salish99_bmx4_r4_147] (Eterna round: R97, puzzle: Brourd's mod of Exclusion 4)	16.5
AUCGUGUUAGGAUAUACACGACGCUGGGUAGCGGGCGGAGGGUAGAAGGGACAUGAGGAUCACCCAUGUUCGGG [Somalaesar] (Eterna round: R97, puzzle: Exclusion 4)	46.6

---

system: MS2 coat protein; experiment: apparent KD of MS2 coat protein; designed switch direction (-1 OFF switch, 1 ON switch): 1; higher = weaker reporter binding; conditions: input ligand: none
Measured apparent KD of MS2 coat protein values are reported for all entries that follow.

seq	apparent KD of MS2 coat protein [nM]
GCGAGCGUACUUGCUACAUGAGGAUCACCCAUGUUCGUUGGACAGGAUAUGGUACCGUUUCGGUACCAGAAGGGUUCACAUGUG [JL SSNG3 3.78] (Eterna round: R96, puzzle: Same State NG 3)	242
UUGAUUAGAAAUUAACAUGAGGAUCACCCAUGUAUUGGAUCAGAGGAUAUGCAUGUUUGAUAGUAGCAGAAGGCUGAUGGUGGA [JR_SSNG3_Sub027] (Eterna round: R96, puzzle: Same State NG 3)	45.8
UAGGAACAUGAGGAUCACCCAUGUACCUCAUAUGGAGAAACACAGGAUAUACUUAGCGAAAGAGAGUAGAAGGGUGAAGAGAGG [Default title] (Eterna round: R96, puzzle: Same State NG 3)	32.6
GCGGUACCUAACAUGAGGAUCACCCAUGUUCCGGAAACGGCACAGGAUAUCUGUCCGAAAAGGUCAGAGAAGGGUGAAAACCGC [Fiskers NG3ss - 94] (Eterna round: R96, puzzle: Same State NG 3)	478
AGAUCAUGACGAGGAUAUGGUACAUGAGGAUCACCCAUGUAUGUACUAUAAUUCGAAUGAGGAAUCCAGAAGGCGUCGUGGUCA [JL SSNG2 1.15] (Eterna round: R96, puzzle: Same State NG 2)	55.4
GCUCGAUGAGCUGUCUACAUGAGGAUCACCCAUGUAGAUGCGGAGGAUAUUUACGUGCUUUAUGUAGAGAAGGCCGUAUCGAGC [SameState NG3 #79] (Eterna round: R96, puzzle: Same State NG 3)	17.9
UAGGAACAUGAGGAUCACCCAUGUACCUCAUAUGGAGAAACACAGGAUAUGCUGAGGGAAACACAGCAGAAGGGUGAAGAGAGG [Default title] (Eterna round: R96, puzzle: Same State NG 3)	32.8
AUUUUUAAUGCAGGAUAUGAUUAACAUGAGGAUCACCCAUGUGGUGUUGUGAGUAAGGAGAGUGAUCAGAAGGGCAUCUUUUCA [SS-NG2-LRO02] (Eterna round: R96, puzzle: Same State NG 2)	372
CGUUCACAUGAGGAUCACCCAUGUCAGAUUUGGUCAGGAUAUGGUCGGCUUCCGCUAUUGCCAGAAGGGACUGUUG [JR_SS001_Sub705] (Eterna round: R96, puzzle: Same State 1)	35.2

---

Each entry below carries its reported apparent KD of MS2 coat protein.
system: MS2 coat protein; assay: apparent KD of MS2 coat protein; designed switch direction (-1 OFF switch, 1 ON switch): -1; higher = weaker reporter binding; conditions: input ligand: none

seq	apparent KD of MS2 coat protein
UGAGUGCUGCGAGGAUAUACAUGAGGAUCACCCAUGUAAGCCUGUGAGGCUUUGCCUCACAGGAUGUAGAAGGCGCAGUACUCU [JL ENG2 1.17] (Eterna round: R96, puzzle: Exclusion NG 2)	13.5 nM
UUAAUUAGCUCGCUAGAUCCUCACAUGAGGAUCACCCAUGUGCAGGAUAUCAGCUCGAUUAGAGCUGAGAAGGGCACUGCGAGC [ExNG3/10-A1] (Eterna round: R96, puzzle: Exclusion NG 3)	104 nM
AUUUCGGCAGGAUAUACAUGAGGAUCACCCAUGUAAAUUUUUCGUUUAACUUGAAUGUGUAGAAGGGCCAUUUA [Ex3 #61] (Eterna round: R97, puzzle: Exclusion 3)	26.6 nM
CUUUCGUGAGGAUAUGUGGCUAAAAUCGUGAGAUCGAGGCUACAGAAGGCACAUGAGGAUCACCCAUGUUCCUC [salish99_ex4_r4_212] (Eterna round: R97, puzzle: Exclusion 4)	38.3 nM
UGGUCACAUGAGGAUCACCCAUGUCAGGAUAUCUACAUUGAAGCUUCGGCUUCAAUGUAGAGAAGGGAUAUAAU [E1/9-B1] (Eterna round: R97, puzzle: Exclusion 1)	71.4 nM
GUUAACGAAGAGGAUAUAUGAUAUCAAAGCUUCAUAGAAGGCUUCACAUGAGGAUCACCCAUGUGAUCUUCAAU [jl-ex6-4.08 ViennaUCT mod] (Eterna round: R97, puzzle: Exclusion 6)	42.6 nM
GAUGUACAUGAGGAUCACCCAUGUCAGGAUAUUAGGCGCCCUCAUAGCAGGGCCAUGAUGAGAAGGGACAGUAC [Eternabot (L2) Solution 33] (Eterna round: R97, puzzle: Exclusion 1)	66.4 nM
AAUUAAUGAGGAUAUACAGUGUAAAACAUGAGGAUCACCCAUGUUCUUCAAUUAGUAUUUGUAGAAGGCAUAGGUA [JR_Ex5_Sub093] (Eterna round: R97, puzzle: Exclusion 5)	61.4 nM
CCGAAGCUAGGAUAUACAUGAGGAUCACCCAUGUAAUCUCAUUUACGGGUCGGGCGCAGUAGAAGGAGCAAAGU [EX3 B.17] (Eterna round: R97, puzzle: Exclusion 3)	15.6 nM
GAUUGAGAAGGAUAUACAUGAGGAUCACCCAUGUGCUUCAGCUAGGAGACUAGCAUUGGUAGAAGGUCUUAAUC [Mod of lroppy 15 - Jieux - Exclusion 3] (Eterna round: R97, puzzle: Exclusion 3)	19.2 nM
UUGAACUUAGGAUAUUGGUUCAGCUACAUGAGGAUCACCCAUGUGGUACCUAGCUGAGGUCAAGAAGGGAGUGUUG [EX5 B.12] (Eterna round: R97, puzzle: Exclusion 5)	20.6 nM
UACAUGAGGAUCACCCAUGUUUUAUCAUGUGUAAUAAUAAUGUAGGAUAUGUAUUAUUUAUUUUAACAGAAGGACAAUAAUAAA [JMF's solution 1] (Eterna round: R96, puzzle: Exclusion NG 3)	362 nM
UCUUACUGAGGAUAUACUUAGAUUUACAUGAGGAUCACCCAUGUUCCUCUAUGUAUAUAUGUAGAAGGCAGAAGAA [Mat - Exclusion 5 - JL Mod - D46] (Eterna round: R97, puzzle: Exclusion 5)	37.1 nM
UGUAGAGUGGUAGGAUAUCCGUCUGUUUCAGUCGGAGAAGGGCCACAGUCACUGGGUCCUAAUAUCAUGGAGACCUGAUCUACU [pwkr exNG1 F6.14] (Eterna round: R96, puzzle: Exclusion NG 1)	383 nM
UUUUUAUAUGAAGGAUAUACUUAACAUGAGGAUCACCCAUGUGGUGUUGUGAGUGAGUGAGUUUAGUAGAAGGUCAAUUCUUUA [JMF's solution 83] (Eterna round: R96, puzzle: Exclusion NG 2)	463 nM
UCGGGAAGAGGAUAUACAUAGAAAUAGAUUCAUGUAAAACUACAUGAGGAUCACCCAUGUAGAAGGCUUUCCGU [Mat - Exclusion 2 - JL Mod - D55] (Eterna round: R97, puzzle: Exclusion 2)	24.2 nM
CAAGCUUUGCGAGGAUAUGAUGGCCGAUAUGCCUCAGAAGGCGCAGAAACUUGAGGAUCACCCAAGUGAUGCAACGACGACCAU [Mutated MS2 EX1.12] (Eterna round: R96, puzzle: Exclusion NG 1)	15.7 nM
CAAUAGGGAGGAUAUCCAAUAUAUGACAUGAGGAUCACCCAUGUUUCCACUCGUACCUCCGGAGAAGGCCCAUAAC [Ex5 #7] (Eterna round: R97, puzzle: Exclusion 5)	21.7 nM
GACCUAUAGGUAGGAUAUCAUUGCGAUUAGCUAUGAGAAGGACCACAUGAGGAUCACCCAUGUCCUCCAAUUAGCCAUUUGGUC [Fiskers ExNg1 - 7] (Eterna round: R96, puzzle: Exclusion NG 1)	58.3 nM
